Molecular target: hCRTH2 (Homo sapiens, UniProt Q9Y5Y4)
Construct: expressed in transfected cells; host or cells: HEK (human embryonic kidney) cells expressing hCRTH2; membrane preparation
Sequence (Q9Y5Y4 1-395): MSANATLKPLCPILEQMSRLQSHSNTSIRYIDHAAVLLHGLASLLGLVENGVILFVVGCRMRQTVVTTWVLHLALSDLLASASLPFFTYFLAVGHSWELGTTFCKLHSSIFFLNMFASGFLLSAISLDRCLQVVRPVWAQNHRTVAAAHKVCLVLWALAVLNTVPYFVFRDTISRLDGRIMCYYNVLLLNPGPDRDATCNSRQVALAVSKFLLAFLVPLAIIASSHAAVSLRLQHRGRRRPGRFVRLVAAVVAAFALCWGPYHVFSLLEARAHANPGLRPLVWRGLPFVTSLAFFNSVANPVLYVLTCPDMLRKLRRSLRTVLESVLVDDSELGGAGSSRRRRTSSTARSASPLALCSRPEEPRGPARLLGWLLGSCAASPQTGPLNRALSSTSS
Experiment: Radioligand binding assay ([3H]PGD2 competition, HEK-hCRTH2 membranes)
Details: [3H]PGD2 competition, Table B
Measured Property: Ki

| Molecule | Ki |
| --- | --- |
| O=C(O)C1CCC(Cc2nc3cc(C(=O)N4CC(c5ccc(F)c(F)c5)C4)ccc3nc2-c2ccc(Cl)cc2)C1 (stereo not drawn) | 2.1 to 20 nM |
| O=C(O)CCCCc1nc2cc(C(=O)N3C4C=C(c5ccccc5)CC3CC4)ccc2nc1-c1ccccc1 (stereo not drawn) | 2.1 to 20 nM |
| C[C@@H](CCCc1nc2cc(C(=O)N[C@H]3CCCc4ccccc43)ccc2nc1-c1ccc(F)cc1)C(=O)O | 2.1 to 20 nM |
| Cc1cnc(C)c(N2CCN(C(=O)c3ccc4nc(-c5ccc(Cl)cc5)c(CCCCC(=O)O)nc4c3)CC2)n1 | 2.1 to 20 nM |
| O=C(O)CCCCc1nc2cc(C(=O)N[C@H]3CCCc4ccccc43)ccc2nc1-c1ccccc1 | 2.1 to 20 nM |
| CC(CCCc1nc2cc(C(=O)N[C@H](C)c3ccc(Cl)cc3)ccc2nc1-c1ccccc1)C(=O)O (stereo partly drawn) | 2.1 to 20 nM |
| C[C@H]1CN(c2ccc(Cl)cc2)CCN1C(=O)c1ccc2nc(-c3ccc(F)cc3)c(CCCCC(=O)O)nc2c1 | 2.1 to 20 nM |
| O=C(O)CCCCc1nc2cc(C(=O)N3CC[C@H](c4ccc(F)cc4)C3)ccc2nc1-c1ccc(Cl)cc1 [compound 559] | 0.1 to 2 nM |

Input line: Please supply the value of reported Ki for the item O=C(N[C@@H]1CCCc2cc(F)ccc21)c1ccc2nc(-c3ccccc3)c(CCCC(F)(F)C(=O)O)nc2c1
Output line: 2.1 to 20 nM

Input line: For O=C(N[C@@H]1CCOc2ccccc21)c1ccc2nc(-c3ccc(F)cc3)c(CCCC(F)(F)C(=O)O)nc2c1 , write its Ki.
Output line: 20.1 to 200 nM

Input line: Retrieve Ki measured for O=C(O)CCCCc1nc2cc(C(=O)N3[C@@H]4CC[C@H]3CN(Cc3ccccc3)C4)ccc2nc1-c1ccc(Cl)cc1 and print it.
Output line: 2.1 to 20 nM

Input line: Specify Ki for CC(CCCc1nc2cc(C(=O)N[C@@H]3C[C@H]3c3ccccc3)ccc2nc1-c1ccccc1)C(=O)O (stereo partly drawn) and stop.
Output line: 2.1 to 20 nM

Input line: Return value of Ki for input Cc1cccc(N2CCN(C(=O)c3ccc4nc(-c5ccc(F)cc5)c(CCCCC(=O)O)nc4c3)CC2)c1 , no commentary.
Output line: 2.1 to 20 nM

Input line: Entry O=C(O)CCCCc1nc2cc(C(=O)NC3CSc4ccccc43)ccc2nc1-c1ccc(Cl)cc1 (stereo not drawn) needs its Ki filled in; supply it.
Output line: 2.1 to 20 nM

Input line: Name the recorded Ki of the molecule listed here: O=C(O)CCCCc1nc2cc(C(=O)N[C@H]3CCOc4ccccc43)ccc2nc1-c1ccccc1
Output line: 0.1 to 2 nM

Source listed as patent US9469615B2.
